Each recorded value in this set is attributed to PubChem BioAssay AID1274.

target system: Neutrophil cytosol factor 1 (Homo sapiens) (UniProt P14598)
Sequence (P14598 whole entry, looked up): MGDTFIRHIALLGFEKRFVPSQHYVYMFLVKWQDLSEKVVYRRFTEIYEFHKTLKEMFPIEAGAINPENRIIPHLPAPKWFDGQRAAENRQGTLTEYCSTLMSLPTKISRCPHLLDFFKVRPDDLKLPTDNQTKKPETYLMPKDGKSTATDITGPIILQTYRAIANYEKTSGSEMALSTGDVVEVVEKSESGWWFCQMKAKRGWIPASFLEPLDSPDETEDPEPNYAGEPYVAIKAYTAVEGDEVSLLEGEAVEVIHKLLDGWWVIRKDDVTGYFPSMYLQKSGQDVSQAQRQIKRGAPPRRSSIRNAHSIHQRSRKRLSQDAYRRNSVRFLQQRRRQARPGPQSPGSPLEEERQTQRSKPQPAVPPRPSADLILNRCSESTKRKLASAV
run description: blockers of p47phox binding to p22phox – biochemical, uHTS, NADPH oxidase regulatory subunit, primary screen (AID 1274);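 also: 0% = p47phox with labelled peptide and 100% = labelled peptide alone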
reported conditions: p47phox/p22phox peptide binding, fluorescence polarization, 2 h; at 24.7 µM; stronger effect = higher value
Out of some 220,000 compounds screened, about 1,100 (0.5%) were called active. Only a selection was taken, and actives are over-represented in it overall.
reported endpoint: inhibition (%)
Give just the number in %; leave the unit off.

Under Neutrophil cytosol factor 1 (Homo sapiens) (UniProt P14598), report inhibition for CCOC(=O)c1ccc(S(=O)(=O)N(CCO)Cc2cc3cc(OC)c(OC)cc3[nH]c2=O)cc1 -9.36

Give Neutrophil cytosol factor 1 (Homo sapiens) (UniProt P14598) inhibition for the following compound: O=C(CCN1C(=O)/C(=C/c2cccs2)SC1=S)NNC(=O)c1cccc(O)c1 -143

Given Cc1ccc(S(=O)(=O)NCC(C)NS(C)(=O)=O)cc1 (stereo not drawn) , report its inhibition on Neutrophil cytosol factor 1 (Homo sapiens) (UniProt P14598). 4.29

Given O=C(CSC(=S)N1CCCCC1)c1c(F)cccc1F , report its inhibition on Neutrophil cytosol factor 1 (Homo sapiens) (UniProt P14598). -20.4

State, for Neutrophil cytosol factor 1 (Homo sapiens) (UniProt P14598), measured inhibition of the compound listed here: OC(CNCc1ccc2c(c1)OCO2)COc1ccccc1 (stereo not drawn) -9.52

# return inhibition of CSCCNCc1cn(-c2ccc(F)cc2F)nc1-c1ccccc1C (system: Neutrophil cytosol factor 1 (Homo sapiens) (UniProt P14598)) 30.6

Give inhibition only, for O=C(CN1C(=O)/C(=C\c2ccc(C(F)(F)F)cc2)Sc2ccccc21)NCc1ccco1 , using Neutrophil cytosol factor 1 (Homo sapiens) (UniProt P14598) data. -2.69

Print Neutrophil cytosol factor 1 (Homo sapiens) (UniProt P14598) inhibition for Cc1ccc(-c2nn(-c3cccc(F)c3)cc2CNCCc2ccncc2)o1 . -21.2

Give inhibition; test system Neutrophil cytosol factor 1 (Homo sapiens) (UniProt P14598); compound COC(=O)Cc1c(O)ccn(Cc2cccc(C(F)(F)F)c2)c1=O -10.6

Please report the measured inhibition for CCn1cc(C(=O)NCCCN2CCCCCC2)c(=O)c2cc(S(=O)(=O)N3CCc4ccccc4C3)ccc21 tested on Neutrophil cytosol factor 1 (Homo sapiens) (UniProt P14598). -1.11

Give inhibition; test system Neutrophil cytosol factor 1 (Homo sapiens) (UniProt P14598); compound CC/C(O)=N\S(=O)(=O)c1ccc(N=NN(C)C)cc1 -7.34

Recall the reported inhibition of COC(=O)[C@H](Cc1ccccc1)NC(=O)Nc1ccc(OC)cc1 on Neutrophil cytosol factor 1 (Homo sapiens) (UniProt P14598) and write it down. -13.5

Please look at CCOC(=O)C1(O)CC(C)=NN1C(=O)c1cccc(Br)c1 (stereo not drawn) and tell me its recorded inhibition on Neutrophil cytosol factor 1 (Homo sapiens) (UniProt P14598). -4.11

* * *

Assign inhibition to each entry below.
target system: Neutrophil cytosol factor 1 (Homo sapiens)
run description: blockers of p47phox binding to p22phox – biochemical, uHTS, NADPH oxidase regulatory subunit, primary screen (AID 1274);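 also: 0% = p47phox with labelled peptide and 100% = labelled peptide alone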
reported conditions: p47phox/p22phox peptide binding, fluorescence polarization, 2 h; at 24.7 µM; stronger effect = higher value
Screen size: about 220,000 compounds; about 1,100 (0.5%) were called active. The sample holds actives, similar compounds and a random draw of the others, so the mix is not that of the screen.
Reply numerically in %, unit not repeated.

Please report inhibition for the following molecule: C=CCOc1c(Br)cc(/C=N\n2nnnc2N)cc1OC 2.05

Return value of inhibition for input O=C(Nc1ccc2c(c1)OCCO2)c1ccoc1 , no commentary. -11.2

For the molecule O=[N+]([O-])c1ccc2c(c1)C(O)n1nc(-c3ccccc3)nc1S2 (configuration not stated) , give its measured inhibition value. -0.84

Report inhibition for O=c1ccnc(Nc2ccc(Cl)cc2)[nH]1 -15.2

Provide measured inhibition value, entry: Cc1ccc(S(=O)(=O)N(CC(=O)NN=C2CCN(C)CC2)c2ccc(F)cc2)cc1 37.2

Item Cc1cccc(N2CC(C)Cn3c2nc2c3c(=O)n(CC(=O)OCc3ccccc3)c(=O)n2C)c1 (configuration not stated) : provide inhibition -39.9

Kindly indicate its recorded inhibition. Item: COc1ccccc1OCCNC(=O)c1cc([N+](=O)[O-])cc([N+](=O)[O-])c1 5.08

Read off the recorded inhibition for COc1ccc(COCC(O)CN2CCC(C(N)=O)CC2)cc1 (configuration not stated) -6.99

Read off the recorded inhibition for CN1CCC(=NNC(=O)CN(c2cccc(Cl)c2)S(C)(=O)=O)CC1 6.83

Check the records and state inhibition for COc1ccccc1-n1ccnc1SCC(=O)NC(C)(C)C 130

Provide inhibition value for the following molecule: O=C(Nc1ccc2c(c1)OCCO2)c1cnccn1 161

Consider the molecule COc1ccc(CN2CCOC2=O)cc1OC and give its recorded inhibition. -11.8
